Measured pKi (σ1 receptor (Cavia porcellus))
pKi here: minus log base 10 of the concentration, concentration in moles per litre.

>>> df
                                   compound  result
0  CCCC(CCC)C(=O)O[C@@H](CCCN1CCC(O)(c2ccc(Cl)cc2)CC1)c1ccc(F)cc1 [(−)-1]    7.80

Please examine the following record next.
Request: Quick one: give measured pKi for CCCC(CCC)C(=O)O[C@H](CCCN1CCC(O)(c2ccc(Cl)cc2)CC1)c1ccc(F)cc1 [(+)-1]
Result: 7.19

----------
Listing of recorded half-life at 3.8 µM by entry.
methodDescription: Enzymatic stability (kinetics of enzymatic hydrolysis) in rat plasma
Assay type: in vitro ADME
testSettings: plasma (80%), pH 7.4, read-out: t1/2, enzymatic stability (converted)
Respond numerically; units are min and should not be typed.

>>> df
                                   molecule  result
0  CCCC(CCC)C(=O)O[C@@H](CCCN1CCC(O)(c2ccc(Cl)cc2)CC1)c1ccc(F)cc1 [(−)-1]    19.3
1  CCCC(CCC)C(=O)O[C@H](CCCN1CCC(O)(c2ccc(Cl)cc2)CC1)c1ccc(F)cc1 [(+)-1]      26

Request: Quote half-life at 3.8 µM reported for CCCC(CCC)C(=O)OC(CCCN1CCC(O)(c2ccc(Cl)cc2)CC1)c1ccc(F)cc1 (racemic) [(±)-1] please.
Result: 14
